assay-details: melting temperature; fluorescence melt of hairpins on a sequencing array, two-state fit, raised by 9.35 °C to match UV melts
measurement-parameters: sodium 0.088 M
Listing of recorded Tm by entry.
Answer in °C, number only, no unit symbol.

>  <sequence-text>
GGTGGGGGAAACCCCATC (.(((((....))))).)

>  <observed-measurement>
51.3

$$$$
>  <sequence-text>
TATCTGAAAAGATA (((((....)))))

>  <observed-measurement>
29.8

$$$$
>  <sequence-text>
GAAAAACGAAAGTTCTTC (((.(((....))).)))

>  <observed-measurement>
28.2

$$$$
>  <sequence-text>
GTAAAGGAAACTTTAC ((((((....))))))

>  <observed-measurement>
40.6

$$$$
>  <sequence-text>
GGAGCCTCGAAAGAGTCC (((..(((....))))))

>  <observed-measurement>
25.9

$$$$

May I ask what Tm has been recorded for GCAATGCGAAAGCATGC (((.(((....)))))) ? 63

Same thing, different sequence: GGGGGAGAAATCCCCC ((((((....)))))) 65.5

Same thing, different sequence: GGATTGCGAAAGCATCC (((.(((....)))))) 50.8

Same thing, different sequence: GTCCGTGGAAACACGAAC ((.((((....)))).)) 39.7

Same thing, different sequence: GACCCAGGAAACCAGGTC ((((..(....)..)))) 34

Same thing, different sequence: GCCCACACGAAAGTGGGC (((..(((....)))))) 68

Same thing, different sequence: GTCGTTCGAAAGAATGAC (((.(((....))).))) 54.9

Same thing, different sequence: GCCCCATCGAAAGATGGC (((..(((....)))))) 37.9

Data provenance is the array DNA melting data of Ke et al. (doi:10.1101/2024.01.08.574731).
